molecular target: Galectin-3 (Homo sapiens)
Sequence (P17931 whole entry): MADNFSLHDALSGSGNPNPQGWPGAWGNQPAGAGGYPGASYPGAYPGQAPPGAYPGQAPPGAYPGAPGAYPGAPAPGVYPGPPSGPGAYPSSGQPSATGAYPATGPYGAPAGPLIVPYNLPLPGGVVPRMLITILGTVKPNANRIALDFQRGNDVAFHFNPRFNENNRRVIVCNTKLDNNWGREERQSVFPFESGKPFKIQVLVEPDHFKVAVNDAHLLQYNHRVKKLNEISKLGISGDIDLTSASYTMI

| COMPOUND | UNITS_TEXT | Kd |
| --- | --- | --- |
| OC[C@H]1OC(O[C@H]2[C@H](O)[C@@H](O)[C@H](OCCCCCCCCCCCCS)O[C@@H]2CO)[C@H](O)[C@@H](O)[C@H]1O (stereo partly specified) | µM | 1.06 |

====

molecular target: Galectin-4 (Homo sapiens, UniProt P56470); assay: Binding affinity to human galectin-4 component 2 by surface plasmon resonance method
Sequence (P56470 whole entry): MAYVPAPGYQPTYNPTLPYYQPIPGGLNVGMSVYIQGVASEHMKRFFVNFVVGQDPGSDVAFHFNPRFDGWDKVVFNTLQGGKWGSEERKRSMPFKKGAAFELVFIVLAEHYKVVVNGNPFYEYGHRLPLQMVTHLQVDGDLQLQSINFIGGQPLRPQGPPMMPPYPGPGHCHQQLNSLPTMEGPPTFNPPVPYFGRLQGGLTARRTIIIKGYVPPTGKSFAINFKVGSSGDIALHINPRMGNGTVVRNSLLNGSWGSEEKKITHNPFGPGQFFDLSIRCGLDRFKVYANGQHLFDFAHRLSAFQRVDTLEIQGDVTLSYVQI

| MOLECULAR_STRING | Kd (nM) |
| --- | --- |
| OC[C@H]1O[C@@H](O[C@H]2[C@H](O)C[C@@H](OCCCCCCCCCCCCS)O[C@@H]2CO)[C@H](O)[C@@H](O)[C@H]1O | 58 |
